Molecular target: Full length DGKζ (in-house protein M1-V929) (Homo sapiens)
Construct: His (N); TEV site (N)
Sequence (Q13574 1-929 isoform Q13574-4): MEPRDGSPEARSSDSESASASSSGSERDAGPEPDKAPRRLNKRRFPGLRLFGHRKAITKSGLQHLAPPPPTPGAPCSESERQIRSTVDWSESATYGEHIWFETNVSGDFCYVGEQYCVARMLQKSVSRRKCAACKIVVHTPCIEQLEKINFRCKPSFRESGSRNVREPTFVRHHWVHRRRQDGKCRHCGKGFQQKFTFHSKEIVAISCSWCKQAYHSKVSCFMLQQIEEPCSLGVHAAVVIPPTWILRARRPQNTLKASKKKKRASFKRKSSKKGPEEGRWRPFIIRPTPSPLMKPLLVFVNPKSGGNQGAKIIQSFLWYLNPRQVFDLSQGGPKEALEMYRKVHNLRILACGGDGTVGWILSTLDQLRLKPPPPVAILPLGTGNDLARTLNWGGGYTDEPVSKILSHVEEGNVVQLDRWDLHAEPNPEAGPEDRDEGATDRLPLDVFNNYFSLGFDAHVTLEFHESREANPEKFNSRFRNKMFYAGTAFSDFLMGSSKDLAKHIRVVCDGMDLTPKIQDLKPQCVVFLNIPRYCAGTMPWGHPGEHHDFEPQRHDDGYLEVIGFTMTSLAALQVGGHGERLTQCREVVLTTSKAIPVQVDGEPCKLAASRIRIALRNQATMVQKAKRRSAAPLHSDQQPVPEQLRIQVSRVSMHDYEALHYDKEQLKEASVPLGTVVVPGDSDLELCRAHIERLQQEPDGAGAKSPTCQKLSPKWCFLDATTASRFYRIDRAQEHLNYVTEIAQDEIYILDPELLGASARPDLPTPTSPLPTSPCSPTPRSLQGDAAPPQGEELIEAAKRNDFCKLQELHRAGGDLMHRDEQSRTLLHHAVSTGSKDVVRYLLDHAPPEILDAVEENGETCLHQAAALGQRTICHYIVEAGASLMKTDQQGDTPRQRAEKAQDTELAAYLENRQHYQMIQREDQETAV
Assay: Biochemical DGK IC50 assay (ADP-Glo, lipid micelle substrate), DGKζ
Settings: 1 hour preincubation, 1 hour reaction, room temperature
pIC50: −log10 of the molar value.
Respond with TRUE for pIC50 values of 7 and above, FALSE for values below.

See these solved cases before continuing.
{"compound": "CCn1c(CC#N)nc2c(N3C[C@@H](C)N(C(C)c4ccc5c(c4)OC4(CCC4)O5)C[C@@H]3C)nc(=O)n(C)c21 (single isomer, unassigned) [Compound A169b]", "answer_label": "FALSE"}
{"compound": "CCn1c(CC#N)nc2c(N3C[C@@H](C)N(C(C)c4cccc(C(C)(C)C#N)c4)C[C@@H]3C)nc(=O)n(C)c21 (stereo partly drawn)", "answer_label": "TRUE"}
{"compound": "COC[C@H]1CN(C(C)c2ccc3c(c2)OCCO3)[C@H](C)CN1c1nc(=O)n(C)c2c1nc(CC#N)n2C (single isomer, unassigned) [Compound A11b]", "answer_label": "TRUE"}
{"compound": "CCn1c(CC#N)nc2c(N3C[C@@H](C)N(C(C)c4cc(F)c5c(c4)OC(C)(C)O5)C[C@@H]3C)nc(=O)n(C)c21 (mixture of isomers) [Compound A173]", "answer_label": "TRUE"}
{"compound": "COC[C@H]1CN(C(C)c2ccc3c(c2)OCCO3)[C@H](C)CN1c1nc(=O)n(C)c2c1nc(CC#N)n2C (single isomer, unassigned) [Compound A11a]", "answer_label": "FALSE"}
{"compound": "Cc1cnc2ccc(C(C)N3C[C@H](C)N(c4c(F)c(=O)n(C)c5c4nc(CC#N)n5C)C[C@H]3C)cc2n1 (single isomer, unassigned) [Compound A23a]", "answer_label": "TRUE"}

stdin: Dear colleague, could you confirm whether CCn1c(CC#N)nc2c(N3C[C@@H](C)N(C(C)c4ccnc5c4OCCC5(F)F)C[C@@H]3C)nc(=O)n(C)c21 (single isomer, unassigned) [Compound A103b] has pIC50 at or above 7?
stdout: TRUE

stdin: Dear colleague, could you confirm whether CC[C@H]1CN(C(C)c2ccc(C(F)(F)F)cc2)[C@H](CC)CN1c1nc(=O)n(C)c2c1nc(CC#N)n2C (single isomer, unassigned) [Compound A149b] has pIC50 at or above 7?
stdout: TRUE

* * *

Reported pIC50, Full length DGKα (D21-10BG, SignalChem) (Homo sapiens).
pIC50: −log10 of the molar value.

{"molecule": "CCn1c(CC#N)nc2c(N3C[C@@H](C)N(C(C)c4cc5c(cc4Cl)OC(C)(C)O5)C[C@@H]3C)nc(=O)n(C)c21 (stereo partly drawn)", "pIC50": "< 3.82"}
{"molecule": "CCn1c(CC#N)nc2c(N3C[C@@H](C)N(C(C)c4ccc5c(c4)C(=O)N(C)C5=O)C[C@@H]3C)nc(=O)n(C)c21 (stereo partly drawn)", "pIC50": "< 3.82"}

// switching to the query molecule
stdin: Consider the molecule CCn1c(CC#N)nc2c(N3C[C@@H](C)N(C(C)c4cc(F)c5c(n4)OC(C)(C)CO5)C[C@@H]3C)nc(=O)n(C)c21 (single isomer, unassigned) [Compound A163a] . State its measured pIC50.
stdout: < 3.82

* * *

Reported pIC50, Full length DGKα (D21-10BG, SignalChem) (Homo sapiens).
pIC50: −log10 of the molar value.

Consider the worked cases shown below.
{"compound": "COc1cc(F)ccc1C(C)N1C[C@H](C)N(c2cc(=O)n(C)c3c2nc(CC#N)n3C)C[C@H]1C (single isomer, unassigned)", "val": "< 5.00"}
{"compound": "CCn1c(CC#N)nc2c(N3C[C@@H](C)N(C(C)c4ccc5c(n4)OC(C)(C)CO5)C[C@@H]3C)c(F)c(=O)n(C)c21 (stereo partly shown)", "val": "< 3.82"}
{"compound": "COCc1cc(F)ccc1C(C)N1C[C@H](C)N(c2nc(=O)n(C)c3c2nc(CC#N)n3C)C[C@H]1C (single isomer, unassigned) [Compound A27a]", "val": "< 5.00"}

// switching to the query compound
stdin: Report the value of pIC50 obtained on Full length DGKα (D21-10BG, SignalChem) (Homo sapiens) for CCn1c(CC#N)nc2c(N3C[C@@H](C)N(C(C)c4ccc(C)cc4C(F)(F)F)C[C@@H]3C)nc(=O)n(C)c21 (single isomer, unassigned) [Compound A116b] .
Sequence (P23743 whole entry): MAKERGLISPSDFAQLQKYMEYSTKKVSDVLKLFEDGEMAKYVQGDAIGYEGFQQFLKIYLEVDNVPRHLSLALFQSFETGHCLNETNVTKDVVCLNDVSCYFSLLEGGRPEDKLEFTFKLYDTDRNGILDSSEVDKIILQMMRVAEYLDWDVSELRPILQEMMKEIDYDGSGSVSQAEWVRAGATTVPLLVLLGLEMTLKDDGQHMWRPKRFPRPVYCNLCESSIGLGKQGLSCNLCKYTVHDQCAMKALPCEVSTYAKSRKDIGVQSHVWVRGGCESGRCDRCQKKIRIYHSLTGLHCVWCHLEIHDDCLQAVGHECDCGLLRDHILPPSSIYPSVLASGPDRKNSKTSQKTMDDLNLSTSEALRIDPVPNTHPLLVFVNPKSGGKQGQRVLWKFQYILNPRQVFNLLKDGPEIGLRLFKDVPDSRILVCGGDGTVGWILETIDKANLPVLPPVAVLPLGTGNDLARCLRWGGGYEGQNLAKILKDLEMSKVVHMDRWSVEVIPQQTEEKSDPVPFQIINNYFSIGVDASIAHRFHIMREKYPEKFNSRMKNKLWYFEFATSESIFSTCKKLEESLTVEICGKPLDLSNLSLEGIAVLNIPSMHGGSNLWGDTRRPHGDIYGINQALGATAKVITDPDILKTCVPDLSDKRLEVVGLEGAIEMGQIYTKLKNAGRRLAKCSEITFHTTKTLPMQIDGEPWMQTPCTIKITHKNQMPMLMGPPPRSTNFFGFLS
stdout: < 3.82

* * *

Target: Full length DGKα (D21-10BG, SignalChem) (Homo sapiens)
Examples of compounds with documented IC50 follow.

{"compound": "CC(c1ccc(F)cc1C(F)(F)F)N1C[C@H](C)N(c2cc(=O)n(C)c3c2nc(CC#N)n3C)C[C@H]1C (stereo partly drawn) [Compound A2]", "IC50": "> 150 µM"}
{"compound": "CCn1c(CC#N)nc2c(N3C[C@@H](C)N(C(C)c4cccc(C(C)(C)CO)c4)C[C@@H]3C)nc(=O)n(C)c21 (stereo partly drawn) [Compound A133]", "IC50": "> 150 µM"}

// switching to the query compound
stdin: Report the value of IC50 obtained on Full length DGKα (D21-10BG, SignalChem) (Homo sapiens) for CCn1c(CC#N)nc2c(N3C[C@@H](C)N(C(C)c4ccc5c(n4)OC(C)(C)CO5)C[C@@H]3C)nc(=O)n(C)c21 (single isomer, unassigned) [Compound A74a] .
stdout: > 150 µM
